Molecular target: Peroxisome proliferator-activated receptor alpha (Mus musculus) (UniProt P23204)
Sequence (P23204 whole entry): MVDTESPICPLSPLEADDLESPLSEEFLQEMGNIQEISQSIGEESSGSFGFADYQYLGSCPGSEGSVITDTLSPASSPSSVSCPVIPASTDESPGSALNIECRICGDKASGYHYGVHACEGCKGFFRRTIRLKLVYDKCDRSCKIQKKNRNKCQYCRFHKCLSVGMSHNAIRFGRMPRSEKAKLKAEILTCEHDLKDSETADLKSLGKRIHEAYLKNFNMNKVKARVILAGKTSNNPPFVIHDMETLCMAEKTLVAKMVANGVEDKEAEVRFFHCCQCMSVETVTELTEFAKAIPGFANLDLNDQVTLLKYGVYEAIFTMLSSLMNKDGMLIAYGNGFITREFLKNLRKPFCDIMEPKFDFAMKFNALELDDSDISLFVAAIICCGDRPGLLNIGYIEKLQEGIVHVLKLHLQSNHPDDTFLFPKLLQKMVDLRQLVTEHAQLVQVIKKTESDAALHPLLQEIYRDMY
Test: Transactivation of mouse recombinant PPARalpha expressed in mouse NIH3T3 cells at 5 uM by PPRE activation based dual luciferase reporter gene assay relative to control
Format: cell-based
Active and inactive are the calls of the source. The calls are words filed in the database; no cut-off is given here.
ASSAY ENDPOINT: Activity

# annotated cases, reported Activity shown
CCCCCCCCCCCCCC[C@H](O)[C@H](O)[C@@H](CO)NC(=O)[C@H](Cc1ccccc1)NC(=O)OC(C)(C)C Active
CCCCCCCCCCCCCC[C@H](O)[C@H](O)[C@H](CO)NC(=O)CCCCCCCCCCCCC Active
CCCCCCCCCCCCCC[C@H](O)[C@@H](O)[C@H](CO)NC(=O)[C@H](Cc1ccccc1)NC(=O)OC(C)(C)C Active
CCCCCCCCCCCCCC[C@@H](O)[C@@H](O)[C@@H](CO)NC(=O)CCCCCCCCCCCCC Active
CCCCCCCCCCCCCC[C@@H](O)[C@H](O)[C@@H](CO)NC(=O)[C@H](Cc1ccccc1)NC(=O)OC(C)(C)C Active

# ---- query compound ----
For the compound shown here, `CCCCCCCCCCCCCC[C@@H](O)[C@H](O)[C@H](CO)NC(=O)CCCCCCCCCCCCC` , give the reported Activity.
Active

---

Biological target: Peroxisome proliferator-activated receptor gamma (Mus musculus)
Sequence (whole entry): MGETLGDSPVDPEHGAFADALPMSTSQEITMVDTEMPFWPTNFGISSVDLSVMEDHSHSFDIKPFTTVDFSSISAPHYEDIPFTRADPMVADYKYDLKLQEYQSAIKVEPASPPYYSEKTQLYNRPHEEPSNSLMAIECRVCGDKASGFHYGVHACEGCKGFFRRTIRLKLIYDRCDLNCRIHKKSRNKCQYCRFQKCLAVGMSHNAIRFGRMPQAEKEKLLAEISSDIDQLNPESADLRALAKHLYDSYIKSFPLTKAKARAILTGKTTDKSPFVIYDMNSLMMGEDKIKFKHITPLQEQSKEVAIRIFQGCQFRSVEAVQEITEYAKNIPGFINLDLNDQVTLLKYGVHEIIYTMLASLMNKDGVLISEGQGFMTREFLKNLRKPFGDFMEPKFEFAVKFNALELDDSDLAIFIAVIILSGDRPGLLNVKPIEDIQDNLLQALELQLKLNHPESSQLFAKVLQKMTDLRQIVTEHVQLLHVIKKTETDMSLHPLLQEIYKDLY
Experiment: Transactivation of mouse recombinant PPARgamma expressed in mouse NIH3T3 cells by PPRE activation based dual luciferase reporter gene assay relative to control
Type: cell-based
Activity calls are given as the source filed them. The calls are words filed in the database; no cut-off is given here.
ASSAY ENDPOINT: Activity

# annotated cases, reported Activity shown
COMPOUND	REPORTED RESULT
CCCCCCCCCCCCCC[C@@H](O)[C@@H](O)[C@@H](CO)NC(=O)CBr	Active
CCCCCCCCCCCCCC[C@H](O)[C@H](O)[C@@H](CO)NC(=O)[C@H](Cc1ccccc1)NC(=O)OC(C)(C)C	Active
CCCCCCCCCCCCCC[C@H](O)[C@H](O)[C@H](CO)NC(=O)CCCCCCCCCCCCC	Active
CCCCCCCCCCCCCC[C@@H](O)[C@@H](O)[C@@H](CO)NC(=O)CCCCCCCCCCCCC	Active
CCCCCCCCCCCCCC[C@@H](O)[C@H](O)[C@H](CO)NC(=O)CCCCCCCCCCCCC	Active

For the compound shown here, `CCCCCCCCCCCCCC[C@@H](O)[C@H](O)[C@@H](CO)NC(=O)[C@H](Cc1ccccc1)NC(=O)OC(C)(C)C` , give the reported Activity.
Active

For the compound shown here, `CCCCCCCCCCCCCC[C@H](O)[C@@H](O)[C@H](CO)NC(=O)[C@H](Cc1ccccc1)NC(=O)OC(C)(C)C` , give the reported Activity.
Active

For the compound shown here, CC1(COc2ccc(CC3SC(=O)NC3=O)cc2)CCCCC1 (stereo not drawn) , give the reported Activity.
Active
